These measurements were taken from patent US20190224279A1.

# Test system: human osteosarcoma cells, MG63
# protocol details: Tumor cell recoding via quantification of pRB (immunofluorescence, ImageJ)
# Assay type: cell-based
# condition info: Table 4

{"sequence input": "VPTELSPISILFIVGGKPKVYKQYENMVVE (Non-cyclic GFR-binding peptide) [SEQ ID NO: 90]", "study system": "human osteosarcoma cells, MG63", "quantity unit": "%", "pRB (%)": 17}
{"sequence input": "VPTHHSAISTLYLELAGEKPLKNYQFLQHNK (Non-cyclic GFR-binding peptide) [SEQ ID NO: 96]", "study system": "human osteosarcoma cells, MG63", "quantity unit": "%", "pRB (%)": 7}
{"sequence input": "VPEKMSSLSILFFDENKNAALKVYPNMTVE (Non-cyclic GFR-binding peptide) [SEQ ID NO: 92]", "study system": "human osteosarcoma cells, MG63", "quantity unit": "%", "pRB (%)": 8}
{"sequence input": "VPTEESNITTQIMRIKPHQGQHIGEMSFLQH [SEQ ID NO: 69] (Non-cyclic GFR-binding peptide)", "study system": "human osteosarcoma cells, MG63", "quantity unit": "%", "pRB (%)": 23}
{"sequence input": "RNVQCRPTQLEPLPIVYYEIVRKKPEQLSNTLEDHLA [SEQ ID NO: 66] (Non-cyclic GFR-binding peptide)", "study system": "human osteosarcoma cells, MG63", "quantity unit": "%", "pRB (%)": 21}
{"sequence input": "VPARLSPISILYIDAANNVVYKQYEDM (Non-cyclic GFR-binding peptide) [SEQ ID NO: 74]", "study system": "human osteosarcoma cells, MG63", "quantity unit": "%", "pRB (%)": 10}
{"sequence input": "ASASPSSVPQDLEPLTILYYVGRTPKVEQLSNMV (Non-cyclic GFR-binding peptide) [SEQ ID NO: 65]", "study system": "human osteosarcoma cells, MG63", "quantity unit": "%", "pRB (%)": 18}

###

# System: human osteosarcoma cells, MG63
# protocol details: Tumor cell recoding via quantification of pRB (immunofluorescence, ImageJ)
# Type: cell-based
# condition info: Table 4
The threshold is inclusive: pRB (%) of exactly 10% counts as label 1; values below receive label 0.

{"sequence input": "VPARLSPISILYIDEMGVPTYKQYEEGMSVAE (Non-cyclic GFR-binding peptide) [SEQ ID NO: 83]", "answer label": "label 0"}
{"sequence input": "VPARLSPISILYIDAANNVVYKQYEDMVKS (Non-cyclic GFR-binding peptide) [SEQ ID NO: 93]", "answer label": "label 0"}
{"sequence input": "VPTKLSPISILYIDDMGVPTYKQYEEGMSVAE (Non-cyclic GFR-binding peptide) [SEQ ID NO: 67]", "answer label": "label 0"}
{"sequence input": "APTKLEPLTIVYYDDSSNVIEQLSNNMVVR (Non-cyclic GFR-binding peptide) [SEQ ID NO: 88]", "answer label": "label 1"}
{"sequence input": "TPTKMSPINMLYFNEKNNIIYGKIPGM (Non-cyclic GFR-binding peptide) [SEQ ID NO: 94]", "answer label": "label 1"}
{"sequence input": "VPQALSPINMLYFNEKNQIIYGKIPFLQHNK (Non-cyclic GFR-binding peptide) [SEQ ID NO: 75]", "answer label": "label 0"}
{"sequence input": "VPTKLSPISILYIDKMGVPTYKQYEEGMSVAE (Non-cyclic GFR-binding peptide) [SEQ ID NO: 82]", "answer label": "label 1"}
{"sequence input": "ASASPSSVPQDLEPLTILYYVGRTPKVEQLSNMVEDH (Non-cyclic GFR-binding peptide) [SEQ ID NO: 80]", "answer label": "label 1"}
{"sequence input": "APTQLSAISTLYLEIVRKKPLKNYQEMEDH (Non-cyclic GFR-binding peptide) [SEQ ID NO: 78]", "answer label": "label 1"}
{"sequence input": "TQVQLEPLTLLYYDENEKVIEQLSNDMVVE (Non-cyclic GFR-binding peptide) [SEQ ID NO: 71]", "answer label": "label 1"}
{"sequence input": "APTQLSAISTLYLEIVRKKPLKNYQFLQHNK (Non-cyclic GFR-binding peptide) [SEQ ID NO: 77]", "answer label": "label 1"}
{"sequence input": "VSQDLSAISTLYLKIVRKEPLKNYQEMVEE (Non-cyclic GFR-binding peptide) [SEQ ID NO: 98]", "answer label": "label 0"}
{"sequence input": "VPQALSPISILFIRLKPHQGHLGEMSNMVVR (Non-cyclic GFR-binding peptide) [SEQ ID NO: 85]", "answer label": "label 1"}
{"sequence input": "SRVHHNAISTLYFDESSNVILKKYRGMSVVE (Non-cyclic GFR-binding peptide) [SEQ ID NO: 91]", "answer label": "label 0"}
{"sequence input": "VPEKMSSLSILFFDENKNVVLKVYPNMAVS (Non-cyclic GFR-binding peptide) [SEQ ID NO: 73]", "answer label": "label 1"}
